Entry source: PubChem BioAssay AID463215

# experimental.protocol: growth inhibitors of wild-type TIM10 yeast, confirmation, counter-screen for tim10-1 synthetic lethality project, single concentration, luminescence, S. cerevisiae (AID 463215);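 note: isogenic wild-type TIM10 control yeast grown in succinate dextrose medium; 0% = yeast with DMSO and 100% = medium wells lacking yeast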
# reported.conditions: S. cerevisiae tim10 strain growth, BacTiter-Glo luminescence, 24 h; at 10 µM; active compounds read high
The whole screen tested about 4,600 compounds, of which about 2,900 (63%) were called active. So high a share suggests a set chosen from earlier hits. Only a sample is shown.
reported.property: inhibition (%)
Numbers only, in %.

Before answering, review these 3 worked examples.
>>> test_value("O=C(Nc1nnc(SCc2c(Cl)cccc2Cl)s1)C1CCCO1 (stereo not drawn)")
41
>>> test_value("FC(F)(F)c1cccc(NC(=S)Nc2cccc(Cl)c2)c1")
26.8
>>> test_value("CCn1c(CSCc2c(Cl)cccc2Cl)n[nH]c1=S")
35.4

Parameters: items (list). Returns: inhibition for each item.
1. COc1ccc(Cn2c(-c3ccc(Cl)cc3)c[n+]3ccccc23)cc1
2. COc1ccc(CN(C(=O)CSc2nnc(-c3ccc(OC)c(OC)c3)o2)c2ccc(F)cc2)cc1
3. Cc1csc(NC(=S)Nc2cccc(Cl)c2)n1

Reply:
1: 34.7; 2: 19; 3: 9.5

Parameters: items (list). Returns: inhibition for each item.
1. Fc1ccc(/C=N/n2c(COc3ccccc3)n[nH]c2=S)cc1
2. N/C(=N\OC(=O)CCc1ccccc1)c1ccc(Cl)cc1
3. Cc1cc(C)cc(NC(=S)NCCc2c[nH]c3ccccc23)c1
4. COc1ccc(Nc2nc(N)nc(CSC(=S)N3CCC(C)CC3)n2)cc1
5. Cc1cc(C)nc(S/C=C/C(=O)c2ccccc2)n1

Reply:
37
57.2
-10.2
-1
60.8

Parameters: items (list). Returns: inhibition for each item.
1. CCNC(=S)N(CCc1c(C)[nH]c2ccc(C)cc12)Cc1ccco1
2. COc1ccc(/C(N)=N/OC(=O)CCCc2ccccc2)cc1
3. COc1ccc2nc(N3CCN(C(=O)c4ccc([N+](=O)[O-])o4)CC3)sc2c1
4. CC1CCCCC1NC(=O)/C(C#N)=C/C=C/c1ccccc1[N+](=O)[O-] (stereo not drawn)
5. O=C(CCN1CCc2ccccc2C(O)(c2ccccc2)C1)c1ccc2c(c1)OCCO2 (stereo not drawn)

Reply:
[20.2, 39.8, 82.2, 41.3, 46.2]

====

# experimental.protocol: growth inhibitors of wild-type TIM10 yeast, confirmation, counter-screen for tim10-1 synthetic lethality project, single concentration, luminescence, S. cerevisiae (AID 463215)
# reported.conditions: S. cerevisiae tim10 strain growth, BacTiter-Glo luminescence, 24 h; at 10 µM; active compounds read high
Hit rate of the full screen: of about 4,600 compounds, about 2,900 (63%) were called active. The set was probably picked from earlier hits. Not all results are given here.
Values of inhibition greater than or equal to 50% map to satisfied; values below map to not satisfied.

As a guide, the following entries are already answered.
>>> group_label("COC(=O)c1c(NC(=O)CSc2nncs2)sc2c1CCCCC2")
"not satisfied"
>>> group_label("CC(C)c1ccc(NC(=S)NC2CC3C=CC2C3)cc1 (stereo unspecified)")
"not satisfied"
>>> group_label("Cc1ccc2nc(N(CCN(C)C)C(=O)C3=COCCO3)sc2c1")
"not satisfied"

Ask: Check if inhibition >= 50% (inclusive). Item: NS(=O)(=O)c1ccc(NC(=S)Nc2ccc(Br)c(Cl)c2)cc1
Reply: not satisfied

Ask: Check if inhibition >= 50% (inclusive). Item: O=C(NC(Nc1nc2ccc([N+](=O)[O-])cc2s1)(C(F)(F)F)C(F)(F)F)c1ccccc1
Reply: satisfied

====

# experimental.protocol: growth inhibitors of wild-type TIM10 yeast, confirmation, counter-screen for tim10-1 synthetic lethality project, single concentration, luminescence, S. cerevisiae (AID 463215)
# reported.conditions: S. cerevisiae tim10 strain growth, BacTiter-Glo luminescence, 24 h; at 10 µM; active compounds read high
The campaign covered roughly 4,600 compounds. About 2,900 (63%) were called active. So high a share suggests a set chosen from earlier hits. Only a sample is shown.
Could you please report measured inhibition for the items listed next?
Give bare numbers, in %.

Before answering, review these 2 worked examples.
>>> test_value("Cc1ccc(-c2ccnc3nc(Sc4ncc(C(F)(F)F)cc4Cl)nn23)cc1")
29.6
>>> test_value("CN(C)CCCN(C(=O)c1ccc(S(=O)(=O)N2CCCc3ccccc32)cc1)c1nc2ccc(F)cc2s1")
41.4

Parameters: items (list). Returns: inhibition for each item.
1. CCOC(=O)C1=C(C)N=c2s/c(=C\C(=O)OC)c(=O)n2C1c1ccc(OC)cc1 (centres undefined)
2. Fc1ccc(-n2c(Cc3ccccc3)nnc2SCc2nc(-c3ccc(Cl)cc3)no2)cc1
3. CCCCC1(C(=O)OCC)NC(c2ccc(O)cc2)C2C(=O)N(c3ccccc3)C(=O)C21 (centres undefined)
4. N/C(=N\OC(=O)c1cc(-c2ccccc2)nc2ccccc12)c1ccncc1
5. Cc1ccc(-c2noc(CSc3nnc(-c4ccncc4)n3-c3ccc(F)cc3)n2)cc1
6. O=[N+]([O-])c1ccccc1S(=O)(=O)Nc1cccc2cccnc12
7. CCN(CC)CCN(C(=O)c1ccc(S(=O)(=O)N2CCOCC2)cc1)c1nc2cc3c(cc2s1)OCCO3

Reply:
53.6
37.8
7
64.8
30.2
19.5
28.1

====

# experimental.protocol: growth inhibitors of wild-type TIM10 yeast, confirmation, counter-screen for tim10-1 synthetic lethality project, single concentration, luminescence, S. cerevisiae (AID 463215);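 note: isogenic wild-type TIM10 control yeast grown in succinate dextrose medium; 0% = yeast with DMSO and 100% = medium wells lacking yeast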
# reported.conditions: S. cerevisiae tim10 strain growth, BacTiter-Glo luminescence, 24 h; at 10 µM; active compounds read high
Out of some 4,600 compounds screened, about 2,900 (63%) were called active. So high a share suggests a set chosen from earlier hits. The list is a sample of the results.
Could you please report measured inhibition for the items listed next?
Numbers only, in %.

Before answering, review these 3 worked examples.
>>> test_value("COc1ccc(S(=O)(=O)N2CCN(C(C)C(=O)Nc3ccc(C(C)C)cc3)CC2)cc1 (centres undefined)")
38.8
>>> test_value("C=CCNC(=S)NNC(=O)COc1c(Cl)cc(Cl)cc1Cl")
2.85
>>> test_value("CCOc1ccccc1/C=c1\\sc2nc(-c3ccco3)nn2c1=O")
48.9

Let's switch to this compound now.
Ask: For the compound CNC(=S)N/N=C/c1cn(Cc2ccc(C)cc2)c2ccccc12 , report inhibition.
Reply: 53.4

====

Could you please report measured inhibition for the items listed next?
# experimental.protocol: growth inhibitors of wild-type TIM10 yeast, confirmation, counter-screen for tim10-1 synthetic lethality project, single concentration, luminescence, S. cerevisiae (AID 463215);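 note: isogenic wild-type TIM10 control yeast grown in succinate dextrose medium; 0% = yeast with DMSO and 100% = medium wells lacking yeast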
# reported.conditions: S. cerevisiae tim10 strain growth, BacTiter-Glo luminescence, 24 h; at 10 µM; active compounds read high
The campaign covered roughly 4,600 compounds. About 2,900 (63%) were called active. So high a share suggests a set chosen from earlier hits. The list is a sample of the results.
One number for each entry, in %.

Before answering, review these 3 worked examples.
>>> test_value("CCN1/C(=C\\c2ccc3ccccc3[n+]2CC)Sc2cc(C)ccc21")
78.1
>>> test_value("O=C1NC(Nc2nc3ccccc3s2)(C(F)(F)F)C(=O)N1C1CCCCC1 (stereo unspecified)")
52.6
>>> test_value("O=C(Nc1ccc(Br)cn1)c1ccc([N+](=O)[O-])o1")
46.5

Parameters: items (list). Returns: inhibition for each item.
1. N#C/C(=C\c1ccccc1C(F)(F)F)C(=O)Nc1ccccc1F
2. C[C@@H]1C(c2ccc(F)cc2)=NN(c2ccc(Br)cc2)[C@H]1C(=O)N1CCOC1=O
3. Oc1ccccc1-c1cc(-c2ccc(Cl)cc2)n[nH]1
4. Cc1cccc(NC(=O)c2ccc([N+](=O)[O-])o2)c1
5. CC1CCC2CCCCC2N1C(=O)c1cc([N+](=O)[O-])cc([N+](=O)[O-])c1 (stereo unspecified)
6. CC(C)CC(=O)NC(=S)Nc1ccc(F)cc1F
7. O=C(/C=C/Sc1ncn[nH]1)c1ccc(Cl)cc1
8. O=C(N/N=C/c1c[nH]c2ccccc12)c1cc2ccccc2o1

Reply:
46.9
52.1
55.5
81.6
33
15.1
79
22.9

====

# experimental.protocol: growth inhibitors of wild-type TIM10 yeast, confirmation, counter-screen for tim10-1 synthetic lethality project, single concentration, luminescence, S. cerevisiae (AID 463215);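 note: isogenic wild-type TIM10 control yeast grown in succinate dextrose medium; 0% = yeast with DMSO and 100% = medium wells lacking yeast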
# reported.conditions: S. cerevisiae tim10 strain growth, BacTiter-Glo luminescence, 24 h; at 10 µM
The whole screen tested about 4,600 compounds, of which about 2,900 (63%) were called active.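 Rule for the calls: active = inhibition of yeast growth at or above a set limit in either of two replicates at 10 µM; inactive = the rest.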 The set was probably picked from earlier hits. A selection follows.
Can you answer with just one of these options? yes for active, no for inactive

As a guide, the following entries are already answered.
>>> group_label("Cc1nc(-c2ccc(Cl)cc2)sc1C(=O)CBr")
"yes"
>>> group_label("O=C(O)CCCC(=O)Nc1ccccc1-n1ccnc1")
"no"

Ask: Assay outcome for CC(=O)N1C(C)c2ccccc2C(C)(C)CC12CCCCC2 (stereo unspecified) : what was it?
Reply: no

Ask: Assay outcome for O=C(Oc1c(-c2ccco2)oc2ccccc2c1=O)c1cccnc1 : what was it?
Reply: yes

Ask: Assay outcome for O=C(NCc1ccco1)c1cc2sccc2n1Cc1ccc(F)cc1 : what was it?
Reply: no

Ask: Assay outcome for COc1ccc2c(CN3CCN(S(=O)(=O)c4cccs4)CC3)cc(=O)oc2c1 : what was it?
Reply: no
